Test: Selectivity index, ratio of CC50 for human THP1 cells to IC50 for Leishmania donovani MHOM/NP/02/BPK282/0c14
Type: toxicity
Settings: THP-1 cells, read-out: Ratio CC50/IC50
# reported selectivity ratio; entries follow
# print the numeric value only

INSERT INTO results (mol, assay_value) VALUES
  ('COc1cc(OCC=C(C)C)ccc1C(=O)/C=C/c1ccccc1', 3.3),
  ('CC(C)=CCOc1ccc(C(=O)/C=C/c2cccnc2)c(O)c1', 11.8);

Now, please, on to the next compound.
Provide selectivity ratio value for the following compound: COc1cc(OCC=C(C)C)ccc1C(=O)/C=C/c1cc(OC)c(OC)c(OC)c1
2.3
